biological target: Macrophage-stimulating protein receptor (Homo sapiens)
Sequence (Q04912 25-304 limits assumed): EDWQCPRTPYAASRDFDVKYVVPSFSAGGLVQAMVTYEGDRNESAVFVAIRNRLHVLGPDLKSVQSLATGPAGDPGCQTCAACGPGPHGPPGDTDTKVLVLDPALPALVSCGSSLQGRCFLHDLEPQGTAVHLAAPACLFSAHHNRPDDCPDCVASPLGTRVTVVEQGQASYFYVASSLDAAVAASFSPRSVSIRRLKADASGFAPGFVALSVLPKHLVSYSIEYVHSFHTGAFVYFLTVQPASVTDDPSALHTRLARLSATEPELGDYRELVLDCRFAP
Sequence (Q04912 310-1400 limits assumed): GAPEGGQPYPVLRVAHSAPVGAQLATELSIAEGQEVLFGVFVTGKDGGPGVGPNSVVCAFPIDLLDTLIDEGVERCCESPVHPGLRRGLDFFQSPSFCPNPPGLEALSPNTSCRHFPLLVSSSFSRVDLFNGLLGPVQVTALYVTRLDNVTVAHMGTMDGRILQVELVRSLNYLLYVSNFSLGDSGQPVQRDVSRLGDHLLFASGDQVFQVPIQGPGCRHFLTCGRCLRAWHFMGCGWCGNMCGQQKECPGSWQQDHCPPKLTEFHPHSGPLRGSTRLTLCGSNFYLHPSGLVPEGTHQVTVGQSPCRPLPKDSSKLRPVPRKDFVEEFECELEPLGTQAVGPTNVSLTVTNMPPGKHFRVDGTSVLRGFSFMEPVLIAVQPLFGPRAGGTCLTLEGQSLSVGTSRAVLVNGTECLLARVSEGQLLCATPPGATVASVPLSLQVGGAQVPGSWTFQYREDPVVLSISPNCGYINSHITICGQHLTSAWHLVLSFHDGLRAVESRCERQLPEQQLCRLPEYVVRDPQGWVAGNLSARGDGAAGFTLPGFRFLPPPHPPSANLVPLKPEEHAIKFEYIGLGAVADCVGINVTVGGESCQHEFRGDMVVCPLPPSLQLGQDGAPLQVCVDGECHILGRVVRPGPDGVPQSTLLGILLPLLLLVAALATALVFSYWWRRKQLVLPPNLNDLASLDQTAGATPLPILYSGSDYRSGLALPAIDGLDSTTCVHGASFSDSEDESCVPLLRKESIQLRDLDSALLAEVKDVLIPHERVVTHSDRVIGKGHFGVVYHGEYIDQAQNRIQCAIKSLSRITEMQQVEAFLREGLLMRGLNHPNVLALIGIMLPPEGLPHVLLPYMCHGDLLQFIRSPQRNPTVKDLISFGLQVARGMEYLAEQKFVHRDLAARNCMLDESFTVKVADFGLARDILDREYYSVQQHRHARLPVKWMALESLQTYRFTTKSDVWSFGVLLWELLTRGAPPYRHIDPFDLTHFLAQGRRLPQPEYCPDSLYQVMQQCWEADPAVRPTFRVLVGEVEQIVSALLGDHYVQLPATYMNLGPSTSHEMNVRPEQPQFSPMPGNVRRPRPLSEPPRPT
Readout type: IC50

O=C(Nc1ccc(Oc2ccnc3[nH]ccc23)c(F)c1)c1cn(-c2ccc(F)cc2)c2ccccc2c1=O ... > 10 µM

* * *

target: ALK tyrosine kinase receptor (Homo sapiens, UniProt Q9UM73)
Sequence (Q9UM73 whole entry): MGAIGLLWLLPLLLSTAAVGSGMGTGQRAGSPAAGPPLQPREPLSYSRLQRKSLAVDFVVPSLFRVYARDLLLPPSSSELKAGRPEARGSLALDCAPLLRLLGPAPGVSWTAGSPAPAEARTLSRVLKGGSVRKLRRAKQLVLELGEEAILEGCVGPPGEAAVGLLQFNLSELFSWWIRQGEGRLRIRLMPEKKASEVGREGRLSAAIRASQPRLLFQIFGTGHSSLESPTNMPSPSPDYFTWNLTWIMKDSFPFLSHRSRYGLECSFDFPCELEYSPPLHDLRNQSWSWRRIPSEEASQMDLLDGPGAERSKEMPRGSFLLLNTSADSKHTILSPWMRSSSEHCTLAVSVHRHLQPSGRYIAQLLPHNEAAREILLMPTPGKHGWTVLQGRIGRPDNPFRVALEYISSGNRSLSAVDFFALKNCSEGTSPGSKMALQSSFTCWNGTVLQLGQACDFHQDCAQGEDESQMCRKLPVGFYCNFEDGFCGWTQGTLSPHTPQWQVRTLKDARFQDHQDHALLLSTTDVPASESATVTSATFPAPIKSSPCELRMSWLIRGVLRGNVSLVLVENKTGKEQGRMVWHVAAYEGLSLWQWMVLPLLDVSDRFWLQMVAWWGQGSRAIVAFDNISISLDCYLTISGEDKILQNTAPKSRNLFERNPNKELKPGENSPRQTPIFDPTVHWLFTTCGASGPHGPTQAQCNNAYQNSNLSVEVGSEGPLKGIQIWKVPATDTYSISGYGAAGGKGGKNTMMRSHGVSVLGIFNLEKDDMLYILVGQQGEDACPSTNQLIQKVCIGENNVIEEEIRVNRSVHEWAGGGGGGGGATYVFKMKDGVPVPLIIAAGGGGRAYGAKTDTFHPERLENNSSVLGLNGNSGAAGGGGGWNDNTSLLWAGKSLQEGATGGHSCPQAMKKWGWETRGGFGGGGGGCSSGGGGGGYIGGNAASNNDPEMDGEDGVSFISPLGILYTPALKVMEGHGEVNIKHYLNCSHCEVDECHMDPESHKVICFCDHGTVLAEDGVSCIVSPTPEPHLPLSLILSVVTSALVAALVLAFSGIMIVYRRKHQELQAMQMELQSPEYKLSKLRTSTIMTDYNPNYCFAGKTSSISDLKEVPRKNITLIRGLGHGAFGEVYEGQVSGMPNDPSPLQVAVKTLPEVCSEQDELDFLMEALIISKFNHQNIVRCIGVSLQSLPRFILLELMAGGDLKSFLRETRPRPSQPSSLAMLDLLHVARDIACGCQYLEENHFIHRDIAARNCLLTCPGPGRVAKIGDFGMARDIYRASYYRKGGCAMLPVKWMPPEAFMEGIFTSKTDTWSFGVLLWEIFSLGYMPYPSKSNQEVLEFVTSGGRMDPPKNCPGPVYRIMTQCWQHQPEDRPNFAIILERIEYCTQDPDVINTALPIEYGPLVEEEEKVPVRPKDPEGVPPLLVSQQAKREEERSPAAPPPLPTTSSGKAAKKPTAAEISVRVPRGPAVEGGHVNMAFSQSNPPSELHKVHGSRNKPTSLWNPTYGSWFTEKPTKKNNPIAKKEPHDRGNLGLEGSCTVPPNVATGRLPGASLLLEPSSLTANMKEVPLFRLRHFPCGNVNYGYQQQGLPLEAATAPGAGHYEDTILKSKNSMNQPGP
pIC50: −log10 of the molar value.
Readout type: pIC50

O=C(Nc1ccc(Oc2ccnc3[nH]ccc23)c(F)c1)c1cn(-c2ccc(F)cc2)c2ccccc2c1=O ... < 5.00

* * *

test system: A549; test: Antiproliferative activity against human A549 cells assessed as cell growth inhibition measured after 72 hrs by MTT assay; conditions: A549, 72 h
// values below are reported IC50
Readout type: IC50 (µM)

COc1ccc(-n2cc(C(=O)Nc3ccc(Oc4ccnc5[nH]ccc45)c(F)c3)c(=O)c3ccccc32)cc1 ... 4.15
O=C(Nc1ccc(Oc2ccnc3[nH]ccc23)c(F)c1)c1cn(-c2ccccc2)c2ccccc2c1=O ... 0.42
O=C(Nc1ccc(Oc2ccnc3[nH]ccc23)c(F)c1)c1cn(-c2ccc(C(F)(F)F)cc2Cl)c2ccccc2c1=O ... 1.62
COc1ccc(-n2cc(C(=O)Nc3ccc(Oc4ccnc5[nH]ccc45)cc3)c(=O)c3ccccc32)cc1 ... 4.98
Cn1ccc2c(Oc3ccc(NC(=O)c4cn(-c5ccc(Br)cc5)c5ccccc5c4=O)cc3F)ccnc21 ... 1.39
O=C(Nc1ccc(Oc2ccnc3[nH]ccc23)c(F)c1)c1cn(-c2ccc(F)c(Cl)c2)c2ccccc2c1=O ... 2.15
O=C(Nc1ccc(Oc2ccnc3[nH]ccc23)c(F)c1)c1cn(-c2ccc(Br)cc2F)c2ccccc2c1=O ... 1.15
O=C(Nc1ccc(Oc2ccnc3[nH]ccc23)cc1)c1cn(-c2ccc(Br)cc2)c2ccccc2c1=O ... 0.45
